B1: library; numbered along this chain (parent)
chain: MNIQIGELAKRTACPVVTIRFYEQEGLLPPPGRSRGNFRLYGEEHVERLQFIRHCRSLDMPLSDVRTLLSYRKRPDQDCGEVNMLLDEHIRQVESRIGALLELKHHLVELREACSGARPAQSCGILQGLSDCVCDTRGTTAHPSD

Variants of: B1
Experiment: sfGFP reporter fluorescence (15 h) (µM FITC); higher = higher leak
Conditions: library round: Round 0; ligand: none
Lab note: anything with sfGFP reporter fluorescence at or over 0.06 counts as Criterion met; the rest go in Criterion not met.

Past entries and their recorded results:
Entry Sequence	Class Assignment
MNIQIGELAKRTACPVVTIRFYEQEGLLPPPGRSRGNFRLYGEEHVERLQFIRHCRSLDMPLSYVRTLLSYRKRPDQDCGEVNMLLDEHIRQVESRIGALLELKHHLVELREACSGARPAQSCGILQGLSDCVCDTRGTTAHPSD [D64Y]	Criterion met
MNIQIGELAKRTACPVVTIRFYEQEGVLPPPGRSRGNFRLYGEEHVERLQFIRHCRSLDMPLSDVRTLLSYRKRPDQDCGEVNMLLDEHIRQVESRIGALLELKHHLVELREACSGARPAQSCGILQGLSDCVCDTRGTTAHPSD [L27V]	Criterion met
MNIQIGELAKRTACVVVTIRFYEQEGLLPPPGRSRGNFRLYGEEHVERLQFIRHCRSLDMPLSDVRTLLSYRKRPDQDCGEVNMLLDEHIRQVESRIGALLELKHHLVELREACSGARPAQSCGILQGLSDCVCDTRGTTAHPSD [P15V]	Criterion met
MNIQIGELAKRTACPVVTIRFYEQEGLLPPPGRSRGNFRLYGEEHVERLQFIRHCRSLDLNLSDVRTLLSYRKRPDQDCGEVNMLLDEHIRQVESRIGALLELKHHLVELREACSGARPAQSCGILQGLSDCVCDTRGTTAHPSD [M60L P61N]	Criterion met
MNIQIGELAKRTACPVVTIRFYEQEGLLPPPGYSRGNFRLYGEEHVERLQFIRHCRSLDMPLSDVRTLLSYRKRPDQDCGEVNMLLDEHIRQVESRIGALLELKHHLVELREACSGARPAQSCGILQGLSDCVCDTRGTTAHPSD [R33Y]	Criterion met

Problem: Reported sfGFP reporter fluorescence at or above 0.06? MNIQIGELAKRTACPVVTIRFYEQEGLLPPPGRSRGNFRLYGEEHVERAQFIRHCRSLDMPLSDVRTLLSYRKRPDQDCGEVNMLLDEHIRQVESRIGALLELKHHLVELREACSGARPAQSCGILQGLSDCVCDTRGTTAHPSD [L49A]
Solution: Criterion met

Problem: Reported sfGFP reporter fluorescence at or above 0.06? MNIQIGELAKRTACPVVTIRFYEQEGLLPSPGRSRGNFRLYGEEHVERLQFIRHCRSLDMPLSDVRTLLSYRKRPDQDCGEVNMLLDEHIRQVESRIGALLELKHHLVELREACSGARPAQSCGILQGLSDCVCDTRGTTAHPSD [P30S]
Solution: Criterion met

Problem: Reported sfGFP reporter fluorescence at or above 0.06? MNIQIGELAKRTACPVVTIRFYEQEGLLPPPGRSRGNFRLYGEEHVERLQFIRHCRSLDMPLSMVRTLLSYRKRPDQDCGEVNMLLDEHIRQVESRIGALLELKHHLVELREACSGARPAQSCGILQGLSDCVCDTRGTTAHPSD [D64M]
Solution: Criterion met

Problem: Reported sfGFP reporter fluorescence at or above 0.06? MNIQIGELAKRTACPVVTIRFYEQEGLLPPPGRSRGNFRLYGEEHVERLQFIRHCRSLDMHLSDVRTLLSYRKRPDQDCGEVNMLLDEHIRQVESRIGALLELKHHLVELREACSGARPAQSCGILQGLSDCVCDTRGTTAHPSD [P61H]
Solution: Criterion met

Problem: Reported sfGFP reporter fluorescence at or above 0.06? MNIQIGELAKRTACPVVTIRFYEQEGLLPPPGRSRGNFRLYGEEHVERLQFIRHCRSLDMPLSDVRTLLSYRKRPDQDCGEVNMLLDEHIRQVESRIGALLELKHHLVELRPACSGARPAQSCGILQGLSDCVCDTRGTTAHPSD [E112P]
Solution: Criterion not met

Problem: Reported sfGFP reporter fluorescence at or above 0.06? MNIQIGELAKRTACPVVTIRFYEQEGLLPPPGRSRGNFRLYGEEHVERLQFIRHCRSLDMPLSDVRTLLSYRKRPDQDTGEVNMLLDEHIRQVESRIGALLELKHHLVELREACSGARPAQSCGILQGLSDCVCDTRGTTAHPSD [C79T]
Solution: Criterion not met

Problem: Reported sfGFP reporter fluorescence at or above 0.06? MNIQIGELAKRTACPVVTIRFYEQEGLLPPPGRSRGNFRLYGEEHVERLQFIRHCRSLDMPKSDVRTLLSYRKRPDQDCGEVNMLLDEHIRQVESRIGALLELKHHLVELREACSGARPAQSCGILQGLSDCVCDTRGTTAHPSD [L62K]
Solution: Criterion met

Problem: Reported sfGFP reporter fluorescence at or above 0.06? MNIQIGELAKRTACPVVTIRFYEQEGLLPPPGRSRGNFRLYGEEHVERLQFIRHCRSLDMCLSDVRTLLSYRKRPDQDCGEVNMLLDEHIRQVESRIGALLELKHHLVELREACSGARPAQSCGILQGLSDCVCDTRGTTAHPSD [P61C]
Solution: Criterion met

Source of measurements: the supplement of paper PMC12783771
